# testSystem: human progesterone receptor (Homo sapiens)
# Sequence (P06401 679-933 limits assumed): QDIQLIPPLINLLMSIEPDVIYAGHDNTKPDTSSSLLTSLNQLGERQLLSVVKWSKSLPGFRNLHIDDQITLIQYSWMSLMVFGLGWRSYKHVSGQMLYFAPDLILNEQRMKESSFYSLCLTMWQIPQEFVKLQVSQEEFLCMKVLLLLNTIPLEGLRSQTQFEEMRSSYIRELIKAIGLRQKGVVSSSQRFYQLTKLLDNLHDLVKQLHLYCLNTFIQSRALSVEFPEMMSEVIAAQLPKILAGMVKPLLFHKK
# assayOverview: Progesterone receptor binding assay, human PR (CEREP)
# conditionsUsed: 3H-R5020 as ligand, MCF7 cells as source of PR; read-out: Human PR binding (pKi) (converted)
Let's look at some compounds and their measured Ki.
Answer format: numeric, nM implied, no suffix.

Query block: Would you kindly share the measured Ki for CCO[C@]1(C(C)=O)CC[C@H]2[C@@H]3C=CC4=CC(=O)C5CC5[C@@]4(C)[C@@H]3[C@@H](OC(=O)Nc3cccc(OC)c3)C[C@@]21C (some centres unmarked) ?
Result block: 398

Query block: Consider the compound shown here: CC(=O)[C@H]1CC[C@H]2[C@@H]3C=CC4=CC(=O)CC[C@@]4(C)[C@@H]3[C@@H](OC(=O)Nc3ccc4cn[nH]c4c3)C[C@]12C What is its recorded Ki?
Result block: 316

Query block: // lookup Ki for COc1cc(NC(=O)O[C@H]2C[C@]3(C)[C@@H](C(C)=O)CC[C@H]3[C@@H]3C=CC4=CC(=O)CC[C@@]4(C)[C@@H]32)cc(OC)c1OC
Result block: 200

Query block: Please report the recorded Ki for CC(=O)[C@H]1CC[C@H]2[C@@H]3C=CC4=CC(=O)CC[C@@]4(C)[C@@H]3[C@@H](OC(=O)Nc3cccc(/C=N/O)c3)C[C@]12C .
Result block: 316
